Tested on: SN12C renal
Assay: NCI tumour cell line growth inhibition, 48 h
Consider the following compounds; for each one, report its TGI.

Give SN12C renal TGI for `CCc1cccc(C)c1NC(=O)c1sc2nc3c(cc2c1N)C(=O)CCC3`
> 100 µM

Give recorded TGI with SN12C renal for the following compound: COC(=O)C(CCSC)NC(=O)CNC(=O)CSc1nnc(COc2ccc(Cl)cc2)n1-c1ccccc1 (configuration not stated)
32.4 µM

Missing value: TGI, SN12C renal, entry `O=C1Cc2c([nH]c3ccc(Br)cc23)-c2cc(O)c(O)cc2N1` . Fill in?
> 100 µM

Under SN12C renal: TGI value of `Oc1cccc2ccc(N/N=C/c3cc(CN4CCOCC4)c(O)c4ncccc34)nc12` ?
7.82 µM

TGI of `O=[N+]([O-])c1ccc(C(=S)Nc2ccccc2)o1` on SN12C renal?
6.82 µM

What TGI appears in the records for this compound with SN12C renal? COC1C(O)C(CO)OC(OC2C(O)COC(OC3C(C)OC(OC4C(O[C@H]5CC[C@@]6(C)C(CC=C7[C@H]6CCC68C(=O)O[C@@](C)(CCCC(C)C)[C@H]6[C@@H](OC(C)=O)C[C@@]78C)C5(C)C)OCC(OS(=O)(=O)O)C4O)C(OC4OCC(O)C(O)C4O)C3O)C2O)C1O (some centres not stated)
0.3 µM

# value lookup — system SN12C renal, readout TGI, item `COc1c(=O)cc2cc[nH]c3ccn(C)c1c23`
> 100 µM

Query the reported TGI for SN12C renal; item: `COC(=O)[C@H]1CCCN1C(=O)[C@H]1CCCN1C(=O)[C@@H](Cc1c[nH]c2ccccc12)NC(=S)Nc1cc(C(F)(F)F)cc(C(F)(F)F)c1`
3.19 µM

Param readout= TGI; system= SN12C renal; entry= `O=C(NC1CCN(Cc2ccccc2)CC1)c1ccc(I)cc1` ; returns value.
> 100 µM

Query for SN12C renal: what TGI does the record show for `N#Cc1ccc(C=NC23CC4CC(CC(C4)C2)C3)cc1` ?
> 100 µM

Test system SN12C renal; read-out TGI; what value for C[N+]12C=CC=C1C(N1CCCC1)c1scc(-c3ccccc3)c12 (configuration not stated) ?
70 µM

Give SN12C renal TGI for `OC(C#Cc1ccccc1)(c1ccccc1)c1ccccc1`
> 100 µM

Param readout = TGI; param system = SN12C renal; param query = C=C1CC(c2ccc(OCCCN3C(=O)c4ccccc4C3=O)cc2)OC1=O (configuration not stated) ; response: value
12.3 µM

Provide value of TGI for this record tested with SN12C renal: `C[CH2][Sn]([CH2]C)([O]C(=O)c1ccccc1OC)[O][Sn]([CH2]C)([CH2]C)[O]C(=O)c1ccccc1OC`
> 100 µM

Form field - read-out: TGI; system: SN12C renal; submitted item: CC(C)=CC(=O)N(C)C1C2CN3CCC(O2)C13 (configuration not stated)
> 100 µM

API: value(readout= TGI, system= SN12C renal, query= `N#CC(C#N)c1ccc(C(=O)N2CCC[C@H]2CO)cc1` )
> 100 µM

Under SN12C renal: TGI value of OCCNC1c2cc(Cl)ccc2-c2c(Cl)cc(Cl)cc21 (configuration not stated) ?
86.3 µM

Query TGI on SN12C renal for `Cc1ccc2nc(N/N=C/c3sccc3C)cc(C)c2c1`
> 100 µM

Identify the measured TGI of `COc1ccc(/C=N/n2c(C)n[nH]c2=O)c(OC)c1` for SN12C renal.
> 100 µM

Param readout= TGI; system= SN12C renal; entry= `CSC(=S)Nc1cccc(C)n1` ; returns value.
> 100 µM

Entry `COC(=O)c1cncc(/C=C/c2c(C)cc(O)cc2C)c1` , system SN12C renal: what TGI was measured?
> 25 µM

API: value(readout= TGI, system= SN12C renal, query= `Cc1cc[n+]2c(c1)-c1cc(C)cc[n+]1CC2` )
> 100 µM

Could you share what TGI was measured for `CC(=O)NCc1cccc(C#Cc2cncnc2Nc2ccc(OCc3cccc(F)c3)c(Cl)c2)c1` , tested on SN12C renal?
> 25 µM

For the record `C=CNC(=O)NC(=O)CSc1nnc(-c2ccccc2NC(=O)C(F)(F)F)c(=O)[nH]1` , what value of TGI is listed for SN12C renal?
> 100 µM

What measured TGI is associated with `CC1(C)CC[C@]2(C)CC[C@]3(C)C(=CC[C@@H]4[C@@]5(C)CCC(=O)C(C)(C)[C@@H]5[C@H](O)C[C@]43C)[C@@H]2C1` on SN12C renal?
29.5 µM

Notebook: pull reported TGI for SN12C renal, entry `COc1cc2c(cc1OCCCCN1CCN(C(=S)SCCC(C#N)(c3ccccc3)c3ccccc3)CC1)N=C[C@@H]1CCCN1C2=O`
4.54 µM

Tell me reported TGI for `CN(C)C(=NCc1ccccc1)NC#N` , tested with SN12C renal.
> 100 µM
